- System: T-47D breast
- METHOD: NCI tumour cell line growth inhibition, 48 h
// reported TGI for each item listed
Note: unit µM is implicit; provide only the numeric part.

[[record]]
compound = "CCCCCCC1N=C(N)N=C(N)N1c1ccc(Cl)cc1 (configuration not stated)"
readout_type = "TGI"
test_value = 70.5

[[record]]
compound = "O=C(CC1(O)C(=O)Nc2c(Cl)ccc(Cl)c21)c1ccc(C2CC2)cc1 (configuration not stated)"
readout_type = "TGI"
test_value = 27.1

[[record]]
compound = "Cc1cc2c(C(C)C)c(O)c(O)c(C=O)c2c(O)c1-c1c(C)cc2c(C(C)C)c(O)c(O)c(C=O)c2c1O (tested in a mixture with another compound)"
readout_type = "TGI"
test_value = 7.03

[[record]]
compound = "CC1OC(OC2C(O[C@@H]3C[C@@H]4CC[C@@H]5[C@H](CC[C@]6(C)[C@@H]7[C@H](C[C@@H]56)O[C@]5(CC[C@@H](C)CO5)[C@H]7C)[C@@]4(C)C[C@H]3O)OC(CO)C(OC3OC(CO)C(O)C(O)C3O)C2O)C(O)C(O)C1O (some centres not stated)"
readout_type = "TGI"
test_value = 11.2


Attention now turns to another entry.
[in] Consider the compound O=C(Nc1ccc(S(=O)(=O)NC2CCCCCC2)cc1)C(c1ccccc1)S(=O)(=O)c1ccc(F)cc1 (configuration not stated) . State its measured TGI.
[out] 4.83

----------
- System: NCI-H23 lung
- METHOD: NCI tumour cell line growth inhibition, 48 h; in the data active = GI50 below about 0.43 µM; inactive = the rest
The reply should name one outcome from active, inactive

Here are 2 compounds together with their reported answers.
[[record]]
compound = "CC(C)N(C[C@H]1O[C@@H](n2cnc3c(N)ncnc32)[C@H](O)[C@@H]1O)C1CC(CCc2nc3ccc(C(C)(C)C)cc3[nH]2)C1 (some centres undefined)"
discrete_label = "inactive"

[[record]]
compound = "CN1CCN(c2ccc3nc4c(nc3c2C(F)(F)F)C(=O)c2ncccc2C4=O)CC1"
discrete_label = "active"


[in] Short answer needed: outcome of this test for CCOC(=O)C(Cc1ccc(OC)cc1)C(=O)OCC ?
[out] inactive

[in] Short answer needed: outcome of this test for CS[C@@]1(C(=O)Nc2ccc3[nH]nc(-c4ccc(OC(C)C)nc4)c3c2)CCN(CC(=O)N2CC=C(c3ccc(-c4ncn(C)n4)cc3)CC2)C1 ?
[out] active

----------
- System: HOP-62 NSCLC
- METHOD: NCI tumour cell line growth inhibition, 48 h
READOUT TYPE: TGI

[in] Consider the molecule COC(=O)C(=O)C1CCCCC(C2=NC3NN=C(N)N3C2=O)C1=O (centres undefined) . State its measured TGI.
[out] > 100 µM

[in] Consider the molecule NC(N)=NS(=O)(=O)c1ccc(NNc2c3ccccc3nc3c(C(=O)Nc4ccc(S(N)(=O)=O)cc4)cccc23)cc1 . State its measured TGI.
[out] > 100 µM

[in] Consider the molecule CN(CC#N)C(=O)Cc1ccc([N+](=O)[O-])cc1 . State its measured TGI.
[out] > 10 µM

[in] Consider the molecule C=C1CC(C/C=C(\C)CC2CC(=C)C(=O)O2)OC1=O (centres undefined) . State its measured TGI.
[out] > 100 µM

----------
- System: NCI-H226 lung
- METHOD: NCI tumour cell line growth inhibition, 48 h
// reported TGI for each item listed

Example cases with answers are listed next.
[[record]]
compound = "CN(CC#N)C(=O)Cc1ccc([N+](=O)[O-])cc1"
readout_type = "TGI"
test_value = "> 10 µM"

[[record]]
compound = "O=C1CSC(/C=C/c2ccccc2)N1c1ccc(-n2c(-c3ccccc3)nc3ccccc3c2=O)cc1 (stereo unspecified)"
readout_type = "TGI"
test_value = "> 100 µM"

[[record]]
compound = "COc1cccc(/C=C2\\C(=O)N(C(=O)Cc3ccccc3)N=C2C)c1"
readout_type = "TGI"
test_value = "> 100 µM"

[[record]]
compound = "COc1cc2c3c(c1O)C1(C=CC(=O)C=C1)CC3N(C)CC2 (stereo unspecified)"
readout_type = "TGI"
test_value = "> 100 µM"

[[record]]
compound = "CC(=O)N[C@@H](Cc1ccc(OP(=O)(O)O)cc1)C(=O)N[C@H]1CCC(=O)N2CCC[C@@H](C(=O)NCc3ccc(O)cc3)N2C1=O"
readout_type = "TGI"
test_value = "> 25 µM"


Attention now turns to another entry.
[in] Consider the compound COCC12CC(CC1=O)C1C2ON2c3ccccc3C(=O)C12c1ccccc1 (stereo unspecified) . State its measured TGI.
[out] > 100 µM

----------
- System: A498 renal
- METHOD: NCI tumour cell line growth inhibition, 48 h
// reported TGI for each item listed

Example cases with answers are listed next.
[[record]]
compound = "Cc1cc(C)c2[s+]snc2c1"
assayed_system = "A498 renal"
readout_type = "TGI"
test_value = "> 100 µM"

[[record]]
compound = "CCOC(=O)C1CC/C(=C(/C#N)C(=O)OC)N1 (stereo unspecified)"
assayed_system = "A498 renal"
readout_type = "TGI"
test_value = "> 100 µM"

[[record]]
compound = "Cc1cc2nc3c4ccccc4n(CCN(C)C)c3nc2cc1C"
assayed_system = "A498 renal"
readout_type = "TGI"
test_value = "2.86 µM"

[[record]]
compound = "O=C(Nc1ccc(F)cc1)c1cc2ccc(O)cc2oc1=Nc1ccccc1F"
assayed_system = "A498 renal"
readout_type = "TGI"
test_value = "> 100 µM"

[[record]]
compound = "Nn1c(N=Nc2c(O)[nH]c3ccccc23)n[nH]c1=S"
assayed_system = "A498 renal"
readout_type = "TGI"
test_value = "> 100 µM"


[in] Please report TGI with A498 renal for item COC(=O)CCc1ccc2c(c1)CC1(C2)Cc2ccc3c(c2C1)CCC3 (stereo unspecified) .
[out] > 100 µM

----------
// reported TGI for each item listed
- Test system: HCT-116 colon
- METHOD: NCI tumour cell line growth inhibition, 48 h

Example cases with answers are listed next.
[[record]]
compound = "COC1=CC(=O)c2ccccc2C1(C)C1=NC(C)(C)CO1 (stereo unspecified)"
test_value = "> 100 µM"

[[record]]
compound = "C[C@H](O)C(=O)SC[C@H](NC(=O)CC[C@@H](N)C(=O)O)C(=O)NCC(=O)O"
test_value = "> 100 µM"

[[record]]
compound = "O=c1c2ncn(CCCl)c2n(-c2ccccc2)c(=S)n1-c1ccccc1"
test_value = "> 100 µM"

[[record]]
compound = "COC(=O)C1=Cc2c(OC)cc(OC)c(OC)c2[C@H](c2cc(OC)c(OC)cc2OC)C1C(=O)OC (stereo partly specified)"
test_value = "> 100 µM"

[[record]]
compound = "COc1cccc(-c2cc(=O)c3cccnc3[nH]2)c1"
test_value = "> 100 µM"

[[record]]
compound = "O=C1CSC(/C=C/c2ccccc2)N1c1ccc(-n2c(-c3ccccc3)nc3ccccc3c2=O)cc1 (stereo unspecified)"
test_value = "> 100 µM"

[[record]]
compound = "CCOC(=O)c1cn2c([nH]c3ccccc32)c(C#N)c1=O"
test_value = "> 100 µM"

[[record]]
compound = "O=C(O)c1cc(N(Cc2ccccc2O)Cc2cc(O)ccc2O)ccc1O"
test_value = "> 100 µM"


[in] Please report TGI with HCT-116 colon for item CCCCCn1cnc2c1S(=O)(=O)N(C)C(NC(=O)c1ccccc1)=N2 .
[out] > 100 µM

[in] Please report TGI with HCT-116 colon for item Cn1c(N)c(-c2c3ccccc3nc3ccccc23)c(=O)n(C)c1=O .
[out] > 100 µM

[in] Please report TGI with HCT-116 colon for item O=C1c2ccccc2C(=O)c2c(NC(=O)c3ccc4c5c(ncnc35)-c3ccccc3C4=O)cccc21 .
[out] > 100 µM

----------
- Test system: SK-MEL-5 melanoma
- METHOD: NCI tumour cell line growth inhibition, 48 h
READOUT TYPE: TGI

[[record]]
molecule = "CCOC(=O)N1CCC(=O)C[C@@H]1C/C=C/P1(=O)O[C@H](c2ccccc2)C(C)N1C(C)C (stereo not given in full)"
test_value = "> 100 µM"

[[record]]
molecule = "CCOc1ccc(NC(=O)CCC(=O)NN)cc1"
test_value = "> 100 µM"

[[record]]
molecule = "O=C1CCC(=O)C(C(=O)CCC(=O)Nc2cccc(Cl)c2)C1 (stereo not given)"
test_value = "> 100 µM"

[[record]]
molecule = "Brc1ccc(Br)nn1"
test_value = "3.85 µM"


[in] Consider the molecule C[C@@H](Oc1cc(-c2cnn(C3CC4(CCCNC4)C3)c2)cnc1N)c1c(Cl)ccc(F)c1Cl (stereo not given in full) . State its measured TGI.
[out] 2.87 µM

----------
- Tested on: OVCAR-3 ovarian
- METHOD: NCI tumour cell line growth inhibition, 48 h
READOUT TYPE: TGI (µM)
Note: unit µM is implicit; provide only the numeric part.

Example cases with answers are listed next.
[[record]]
compound = "C[N+]1=c2c3cccc4cccc(c(=O)n2CCC1)c43"
units_label = "µM"
test_value = 55.1

[[record]]
compound = "OC(c1ccccc1)c1c(-c2ccccc2)oc(-c2ccccc2)c1C(O)c1ccccc1 (stereo unspecified)"
units_label = "µM"
test_value = 18.7

[[record]]
compound = "CCCc1ccc(OCC(=O)N/N=C/c2c(-c3ccccc3)[nH]c3ccccc23)cc1"
units_label = "µM"
test_value = 95.2

[[record]]
compound = "C=C1C(=O)OC2/C=C(\\C)CC(O)/C=C(/CO)CC(OC(=O)/C(C)=C/C)C12 (stereo unspecified)"
units_label = "µM"
test_value = 122

[[record]]
compound = "Cc1cc(-c2nc3cc(F)ccc3s2)ccc1NC(=O)C(C)N (stereo unspecified)"
units_label = "µM"
test_value = 7.32

[[record]]
compound = "CN(C)/C=N/S(=O)(=O)c1nn2c(C=O)c(-c3ccc([N+](=O)[O-])cc3)nc2s1"
units_label = "µM"
test_value = 18

[[record]]
compound = "ClC1=C(Cl)C(Cl)=C(Cl)C1=Cc1ccc(Cl)cc1"
units_label = "µM"
test_value = 0.853

[[record]]
compound = "CCNCCNc1cc(-c2cccc(C(F)(F)F)c2)c(C#N)c2nc3ccccc3n12"
units_label = "µM"
test_value = 2.62


[in] Please report TGI with OVCAR-3 ovarian for item COc1cc(NCc2ccc3n2-c2ccccc2OC3)cc(OC)c1OC .
[out] 75.5

[in] Please report TGI with OVCAR-3 ovarian for item O=c1[nH]c2c(O)cccc2c2cc3c(c(O)c12)OCO3 .
[out] 45.2

[in] Please report TGI with OVCAR-3 ovarian for item CN(C)CCC(C(=O)C(C)(C)C)c1ccccn1 (stereo unspecified) .
[out] 93.6

[in] Please report TGI with OVCAR-3 ovarian for item C=C(C)[C@@H]1CC[C@]2(C)[C@H](C=CC3=C4C[C@@](C)(CO)CC[C@]4(C)CC[C@]32C)[C@@]1(C)CCCN .
[out] 2.85

[in] Please report TGI with OVCAR-3 ovarian for item CC(OCc1ccccc1)C(NC(=O)C1CSSCC(NC(=O)C(Cc2ccccc2)NC(=O)OCc2ccccc2)C(=O)NC(Cc2ccccc2)C(=O)NC(Cc2cn(C=O)c3ccccc23)C(=O)NC(CCCCNC(=O)OCc2ccccc2)C(=O)NC(C(C)OCc2ccccc2)C(=O)N1)C(N)=O (stereo unspecified) .
[out] 34

[in] Please report TGI with OVCAR-3 ovarian for item CC(=O)OCC(=O)C1(O)C(C)CC2C3C=C(C)C4=Cc5c(cnn5-c5ccccc5)CC4(C)C3C(O)CC21C (stereo unspecified) .
[out] 3.96
